# target_or_system: UniProt P53341
# Sequence (P53341 whole entry): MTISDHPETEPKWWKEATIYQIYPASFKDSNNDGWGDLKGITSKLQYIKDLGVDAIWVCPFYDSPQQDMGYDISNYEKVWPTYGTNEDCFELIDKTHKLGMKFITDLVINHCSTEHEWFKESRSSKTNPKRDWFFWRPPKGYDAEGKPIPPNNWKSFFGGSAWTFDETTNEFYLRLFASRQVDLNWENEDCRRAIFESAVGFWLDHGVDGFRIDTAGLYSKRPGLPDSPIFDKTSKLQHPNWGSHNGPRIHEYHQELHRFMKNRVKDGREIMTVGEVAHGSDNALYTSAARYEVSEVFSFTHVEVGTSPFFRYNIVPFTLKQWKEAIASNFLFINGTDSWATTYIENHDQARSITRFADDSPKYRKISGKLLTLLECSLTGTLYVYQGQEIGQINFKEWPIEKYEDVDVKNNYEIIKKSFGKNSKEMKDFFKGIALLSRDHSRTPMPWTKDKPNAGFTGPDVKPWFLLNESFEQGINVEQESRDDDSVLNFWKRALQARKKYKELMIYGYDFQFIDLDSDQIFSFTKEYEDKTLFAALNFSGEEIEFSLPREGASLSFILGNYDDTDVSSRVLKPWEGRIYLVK
assay_endpoint: Ki

Sample O=c1cc(-c2ccccc2)oc2cc(OCCCCCCCCCCCN3C[C@H](O)[C@@H](O)[C@H](O)[C@H]3CO)cc(O)c12 [compound 6] — what was its Ki? 210 nM
